Biological target: human serotonin transporter (hSERT) (Homo sapiens)
Construct: expressed in transfected cells; host or cells: HEK-293 (human embryonic kidney cells), stably transfected
Sequence (P31645 whole entry): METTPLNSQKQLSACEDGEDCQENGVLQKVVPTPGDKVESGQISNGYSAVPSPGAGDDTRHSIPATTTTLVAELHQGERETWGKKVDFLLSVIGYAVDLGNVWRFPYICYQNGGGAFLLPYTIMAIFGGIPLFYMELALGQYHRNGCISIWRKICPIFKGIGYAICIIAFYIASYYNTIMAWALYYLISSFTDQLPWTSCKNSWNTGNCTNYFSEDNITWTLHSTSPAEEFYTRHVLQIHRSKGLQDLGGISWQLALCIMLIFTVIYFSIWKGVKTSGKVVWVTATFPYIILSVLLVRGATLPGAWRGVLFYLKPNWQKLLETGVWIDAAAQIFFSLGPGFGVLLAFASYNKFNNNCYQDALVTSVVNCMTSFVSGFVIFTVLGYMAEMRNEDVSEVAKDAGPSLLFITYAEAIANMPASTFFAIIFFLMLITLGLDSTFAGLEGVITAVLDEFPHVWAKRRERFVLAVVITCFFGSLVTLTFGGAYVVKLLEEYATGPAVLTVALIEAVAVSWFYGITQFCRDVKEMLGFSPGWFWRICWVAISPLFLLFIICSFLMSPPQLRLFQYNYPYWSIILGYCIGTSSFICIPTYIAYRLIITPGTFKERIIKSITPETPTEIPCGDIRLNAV
Assay: Inhibition of 3H-Serotonin uptake into HEK-293 cells stably transfected with hSERT
Format: cell-based
Settings: HEK-293 cells transfected with hSERT, 3H-Serotonin uptake, 5 minutes incubation, room temperature; read-out: serotonin re-uptake inhibition (SRI) IC50
Provide the reported IC50 of each item.

# lookup: IC50 of CSc1ccc(Oc2ccc(S(N)(=O)=O)cc2CN(C)C)cc1 [Example 28]
≤ 50 nM

# lookup: IC50 of CNCc1cc(CO)ccc1Oc1ccc(SC)cc1 [Example 156]
≤ 50 nM

# lookup: IC50 of CN(C)Cc1cc(C(N)=O)ccc1Oc1ccc(C(F)(F)F)cc1 [Example 95]
≤ 50 nM

# lookup: IC50 of CN(C)Cc1cc(S(C)(=O)=O)ccc1Oc1ccc(OC(F)(F)F)cc1 [Example 145]
≤ 50 nM

# lookup: IC50 of CN(C)Cc1cc(Br)ccc1Oc1ccc(C(F)(F)F)cc1 [Example 3]
≤ 50 nM

Reference source for all entries: patent US6448293B1
